Tested on: SK-ES-1
Experiment: IC50 studies, monolayer cell culture assay (CellTiter-Glo cell viability, 72 hours)
Format: cell-based
Conditions: SK-ES-1, sarcoma, Test III, read-out: IC50 Test (III) Avg
Method: Cancer cell lines listed in Table 1, were subjected for testing anti-cancer potency or the half maximal inhibitory concentration (IC50) of tamibarotene molecular complexes. […] Then 90 μl of the 100 μl testing reagent were transferred into an opaque-walled 96-well plate for the CTG luminescence reading on a plate reader (SynergyH4 Hybrid Reader, Biotek, USA). The luminescence intensity of each treatment was positively correlated with the number of cells survived during the treatments. […]
TEST READOUT: IC50 (µM)
Please give a number only; it is taken to be in µM.

Query: Please give the measured IC50 for this molecule: CC1(C)CCC(C)(C)c2cc(NC(=O)c3ccc(C(=O)O)cc3)ccc21.O=C(O)c1cc(O)c(O)c(O)c1 [TAM-gallic acid]
Reply: 6.76

* * *

Tested on: H460
Test: IC50 studies, monolayer cell culture assay (CellTiter-Glo cell viability, 72 hours)
Type: cell-based
Details: Homo sapiens, NCI-H460, H460, lung, Test I, read-out: IC50 Test(I) Avg
TEST READOUT: IC50 (µM)
Please give a number only; it is taken to be in µM.

Query: Please give the measured IC50 for this compound: CC1(C)CCC(C)(C)c2cc(NC(=O)c3ccc(C(=O)O)cc3)ccc21 [TAM, reference compound]
Reply: 69.3

* * *

Test system: PC-3
Test: IC50 studies, monolayer cell culture assay (CellTiter-Glo cell viability, 72 hours)
Format: cell-based
Conditions: PC-3, prostate, Test II, read-out: IC50 Test (II) Avg
TEST READOUT: IC50 (µM)
Please give a number only; it is taken to be in µM.

Query: Hi! What's the reported IC50 for CC1(C)CCC(C)(C)c2cc(NC(=O)c3ccc(C(=O)O)cc3)ccc21.O=C(O)c1cc(O)c(O)c(O)c1 [TAM-gallic acid] on PC-3?
Reply: 90.3

* * *

System: PC-3
Test: IC50 studies, monolayer cell culture assay (CellTiter-Glo cell viability, 72 hours)
Assay type: cell-based
Settings: Homo sapiens, PC-3, prostate, Test III, read-out: IC50 Test (III) Avg
TEST READOUT: IC50

Query: Please give the measured IC50 for this compound: CC1(C)CCC(C)(C)c2cc(NC(=O)c3ccc(C(=O)O)cc3)ccc21 [TAM, reference compound]
Reply: > 100 µM

* * *

System: H1299
Assay: IC50 studies, monolayer cell culture assay (CellTiter-Glo cell viability, 72 hours)
Type: cell-based
Details: Homo sapiens, NCI-H1299, H1299, lung, Test III, read-out: IC50 Test (III) Avg
Protocol: Cancer cell lines listed in Table 1, were subjected for testing anti-cancer potency or the half maximal inhibitory concentration (IC50) of tamibarotene molecular complexes. […] Then 90 μl of the 100 μl testing reagent were transferred into an opaque-walled 96-well plate for the CTG luminescence reading on a plate reader (SynergyH4 Hybrid Reader, Biotek, USA). The luminescence intensity of each treatment was positively correlated with the number of cells survived during the treatments. […]
TEST READOUT: pIC50
// pIC50: -log10(molar conc.)

Query: Please give the measured pIC50 for this compound: CC1(C)CCC(C)(C)c2cc(NC(=O)c3ccc(C(=O)O)cc3)ccc21 [TAM, reference compound]
Reply: 4.08
